biological target: GRIP2_7, Q9C0E4; experiment: holdup assay; parameters: key: below the threshold = too weak to quantify, mostly under pKd 3.1 to 4; conditions: plain residues with an end cap or a label only (N-terminal biotin on a linker: ado-ado)
Sequence (Q9C0E4 934-1023): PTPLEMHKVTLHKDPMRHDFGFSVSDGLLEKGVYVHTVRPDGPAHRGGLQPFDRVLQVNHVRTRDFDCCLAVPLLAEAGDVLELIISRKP
observed property: pKd

Some solved cases for reference:
[
  {
    "binder": "LPAVCYDIDI [PTTG2, Q9NZH5]",
    "measurement": "below the threshold"
  },
  {
    "binder": "AQRARSPSDV [GPR12, P47775]",
    "measurement": "below the threshold"
  },
  {
    "binder": "DDASLPVSDV [PLEKHA1, Q9HB21]",
    "measurement": "below the threshold"
  },
  {
    "binder": "DRIQSCLSDA [SBF1, O95248]",
    "measurement": "below the threshold"
  },
  {
    "binder": "MQHQRTHTRV [ZSCAN30, Q86W11]",
    "measurement": "below the threshold"
  }
]

Please find the next binder below.
## Task For the binder STKRKLASAV [NCF1, P14598] , report pKd.
## Result below the threshold
